Bin by FACS for assorted molecules
Target: T1, TREM2 (Homo sapiens, UniProt Q9NZC2)
T1 construct: expressed in transfected cells
T1 sequence (Q9NZC2 19-230): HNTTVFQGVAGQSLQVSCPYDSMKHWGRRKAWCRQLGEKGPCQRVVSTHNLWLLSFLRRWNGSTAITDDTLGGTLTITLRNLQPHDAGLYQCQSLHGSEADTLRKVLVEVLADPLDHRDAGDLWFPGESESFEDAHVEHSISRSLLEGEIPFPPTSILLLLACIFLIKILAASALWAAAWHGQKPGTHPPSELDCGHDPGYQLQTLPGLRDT
T1 sequence (O43914 22-113 partner): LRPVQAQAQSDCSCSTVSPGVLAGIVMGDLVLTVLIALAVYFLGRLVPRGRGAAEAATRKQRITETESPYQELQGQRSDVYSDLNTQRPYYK
Assay: FACS binning on human TREM2-HEK cells (competition with R&D antibody)
Type: binding
Details: epitope bin, 100 nM antibody
Form field (numeric): enter value without unit.

# query: Bin by FACS of entry 42E8.H1: anti-TREM2 antibody clone; VH SEQ ID NO:20, VL SEQ ID NO:31 (antibody, V domains shown) VH: DVQLQESGPGLVKPSQSLSLTCTVTGYSITSDYAWNWIRQFPGNKLEWMGYINYSGRTIYNPSLKSRISITRDTSKNHFFLQLISVTTEDTATYYCARWNGNYGFAYWGQGTLVTVSA VL: DVVMTQNPLSLPVSLGDQASISCRSSQSLVHINGNTYLHWYLQKPGQSPKLLIYKVSNRFSGVPDRFSGSGSGTDFTLKISRVEAEDLGVYFCSQTTHALFTFGSGTKLEIK 1

Requested field: Bin by FACS. Item: 3D3.A1: anti-TREM2 antibody clone; VH SEQ ID NO:18, VL SEQ ID NO:29 (antibody, V domains shown) VH: EVQLQQSGPELVKPGASVKISCKTSGYTLSEYTMHWVIQSHGKSLEWIGGVIPNSGGTSYNQKFRDKASLTVDKSSSTAYLELRSLTSEDSAVYYCARGDDSYRRGYALDYWGQGTSVTVSS VL: DIVMSQSPSSLAVSVGEKVTMSCKSSQSLLYSSNQKSYLAWYQQKPGQSPKLLIYWASTRESGVPDRFRGSGSGTDFTLTISSVKAEDLAVYYCQQYFSYPPTFGGGTKLEIK 3

Cited source for all entries: patent US20200277373A1
